Origin of the recorded values: patent US8383608B2

subjectOfTest: human androgen receptor (hAR) (Homo sapiens)
Construct: expressed in transfected cells
Sequence (P10275 1-920): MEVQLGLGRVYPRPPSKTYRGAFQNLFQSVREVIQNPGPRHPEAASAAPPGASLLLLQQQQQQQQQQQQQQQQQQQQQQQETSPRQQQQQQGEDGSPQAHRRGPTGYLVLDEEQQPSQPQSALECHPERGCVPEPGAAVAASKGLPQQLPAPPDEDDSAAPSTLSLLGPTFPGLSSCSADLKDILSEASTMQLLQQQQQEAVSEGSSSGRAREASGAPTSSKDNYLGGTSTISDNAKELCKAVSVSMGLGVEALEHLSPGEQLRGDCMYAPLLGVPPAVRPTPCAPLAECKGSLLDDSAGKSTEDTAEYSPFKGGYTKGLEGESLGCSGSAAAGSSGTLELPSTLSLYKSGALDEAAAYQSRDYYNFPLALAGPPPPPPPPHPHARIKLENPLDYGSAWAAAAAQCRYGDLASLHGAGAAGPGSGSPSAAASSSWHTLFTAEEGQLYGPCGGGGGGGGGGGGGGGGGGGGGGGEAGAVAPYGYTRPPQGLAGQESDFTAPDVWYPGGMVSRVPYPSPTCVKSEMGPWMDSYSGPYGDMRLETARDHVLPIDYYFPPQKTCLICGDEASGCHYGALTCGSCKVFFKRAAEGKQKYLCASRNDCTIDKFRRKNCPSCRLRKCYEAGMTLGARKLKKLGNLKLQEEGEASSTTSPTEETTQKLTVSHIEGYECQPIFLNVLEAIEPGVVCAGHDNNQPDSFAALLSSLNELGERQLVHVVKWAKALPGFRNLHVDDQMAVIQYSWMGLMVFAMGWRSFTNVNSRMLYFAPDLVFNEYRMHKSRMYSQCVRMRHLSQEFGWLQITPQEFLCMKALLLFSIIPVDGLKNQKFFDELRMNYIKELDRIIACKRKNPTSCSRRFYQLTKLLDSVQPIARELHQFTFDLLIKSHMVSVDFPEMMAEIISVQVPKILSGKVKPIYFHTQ
protocolSummary: Functional response (transactivation) test in HALP2 cells (HeLa stably expressing hAR and ARE-luciferase reporter)
Assay type: cell-based
conditionContext: HeLa; maximal activation by the compound compared with DHT alone (100%); HALP2 cells; read-out: % effect relative to DHT (100%)

compound	Emax
CN1C(=O)N(c2ccc(C#N)c(C(F)(F)F)c2)C(=O)C1(CO)c1cccc(C(F)(F)F)c1 (stereo not shown)	21 to 40%
CN1C(=O)N(c2ccc(Cl)c(Cl)c2)C(=O)C1(CO)c1ccccc1 (stereo not shown)	6 to 20%
CN1C(=O)N(c2ccc(C#N)c(C(F)(F)F)c2)C(=O)C1(CO)c1ccc(C#N)cc1 (stereo not shown)	0 to 5%
CN1C(=O)N(c2ccc(C#N)c(C(F)(F)F)c2)C(=O)C1(CO)c1ccc(Cl)cc1 (stereo not shown)	21 to 40%

###

# Emax listing for each entry below
subjectOfTest: human androgen receptor (hAR) (Homo sapiens, UniProt P10275)
Construct: expressed in transfected cells
protocolSummary: Functional response (transactivation) test in HALP2 cells (HeLa stably expressing hAR and ARE-luciferase reporter)
Type: cell-based
conditionContext: HeLa; maximal activation by the compound compared with DHT alone (100%); HALP2 cells; read-out: % effect relative to DHT (100%)
Description: This test constitutes a method of identifying pure or partial agonists which mimic the effects of natural hormones, such as DHT (dihydrotestosterone) in the present case or, on the other hand, antagonists which inhibit them. […] The cells are placed in contact with the compounds for 24 hours at 37° C., 5% CO2, high humidity. […] The luminescence produced is detected on an Envision reader (Perkin-Elmer). […]
propertyMeasured: Emax

compound	subjectOfTest	experimentalResult
CN1C(=O)N(c2ccc(C#N)c(C(F)(F)F)c2)C(=O)C1(CO)c1cccc(Cl)c1 (stereo not shown) [Example 9]	human androgen receptor (hAR) (Homo sapiens, UniProt P10275)	41 to 50%
CN1C(=O)N(c2ccc(C#N)c(C(F)(F)F)c2)C(=O)C1(CO)c1cccc(C#N)c1 (stereo not shown) [Example 14]	human androgen receptor (hAR) (Homo sapiens, UniProt P10275)	21 to 40%
CN1C(=O)N(c2ccc(C#N)c(C(F)(F)F)c2)C(=O)C1(CO)c1ccccc1 (stereo not shown) [Example 1]	human androgen receptor (hAR) (Homo sapiens, UniProt P10275)	21 to 40%
CC(O)C1(c2ccccc2)C(=O)N(c2ccc(C#N)c(C(F)(F)F)c2)C(=O)N1C (single isomer, unassigned) [Example 4]	human androgen receptor (hAR) (Homo sapiens, UniProt P10275)	0 to 5%

###

protocolSummary: Determination of absolute bioavailability (restricted PK profile, oral and intravenous)
Type: in vivo
conditionContext: male, Sprague-Dawley, rat, plasma, po, 10 mg/kg, absolute bioavailability (F), male Sprague Dawley rats, oral 10 mg/kg AUC(0-6 h) vs intravenous 3 mg/kg AUC(0-3 h); read-out: Bioavailability
# bioavailability listing for each entry below

compound	bioavailability
CN1C(=O)N(c2ccc(C#N)c(C(F)(F)F)c2)C(=O)C1(CO)c1ccc(F)cc1 (stereo not drawn)	50 to 90%
C#CCN1C(=O)N(c2ccc(C#N)c(C(F)(F)F)c2)C(=O)C1(CO)c1ccc(F)cc1 (stereo not drawn)	> 90%
CCN1C(=O)N(c2ccc(C#N)c(C(F)(F)F)c2)C(=O)C1(CO)c1ccccc1 (stereo not drawn)	50 to 90%

###

# Emax listing for each entry below
subjectOfTest: human androgen receptor (hAR) (Homo sapiens, UniProt P10275)
Construct: expressed in transfected cells
Sequence (P10275 1-920): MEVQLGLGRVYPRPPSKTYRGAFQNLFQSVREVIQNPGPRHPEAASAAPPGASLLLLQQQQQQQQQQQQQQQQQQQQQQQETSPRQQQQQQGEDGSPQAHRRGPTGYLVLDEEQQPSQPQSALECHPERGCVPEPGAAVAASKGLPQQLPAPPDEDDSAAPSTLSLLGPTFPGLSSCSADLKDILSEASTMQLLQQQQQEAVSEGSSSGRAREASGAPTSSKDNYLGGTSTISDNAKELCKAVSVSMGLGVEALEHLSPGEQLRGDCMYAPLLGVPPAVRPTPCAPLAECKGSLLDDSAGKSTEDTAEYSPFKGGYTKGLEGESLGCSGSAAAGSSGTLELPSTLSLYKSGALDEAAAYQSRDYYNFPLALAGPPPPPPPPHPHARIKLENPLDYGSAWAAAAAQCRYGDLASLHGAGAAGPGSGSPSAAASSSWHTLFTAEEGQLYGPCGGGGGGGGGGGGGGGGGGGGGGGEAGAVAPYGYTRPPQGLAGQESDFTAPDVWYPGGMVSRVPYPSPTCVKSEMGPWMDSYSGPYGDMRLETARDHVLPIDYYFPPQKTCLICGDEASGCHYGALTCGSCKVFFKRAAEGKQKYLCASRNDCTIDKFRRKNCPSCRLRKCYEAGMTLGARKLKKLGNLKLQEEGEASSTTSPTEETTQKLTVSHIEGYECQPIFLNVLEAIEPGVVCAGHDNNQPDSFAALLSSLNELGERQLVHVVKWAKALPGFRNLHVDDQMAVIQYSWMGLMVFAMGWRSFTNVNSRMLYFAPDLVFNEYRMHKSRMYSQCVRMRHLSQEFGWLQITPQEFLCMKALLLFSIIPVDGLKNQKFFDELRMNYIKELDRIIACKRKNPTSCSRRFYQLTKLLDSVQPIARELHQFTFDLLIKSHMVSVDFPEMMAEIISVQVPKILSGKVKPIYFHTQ
protocolSummary: Functional response (transactivation) test in HALP2 cells (HeLa stably expressing hAR and ARE-luciferase reporter)
Format: cell-based
conditionContext: HeLa; maximal activation by the compound compared with DHT alone (100%); HALP2 cells; read-out: % effect relative to DHT (100%)

molecule	Emax
CC(C)N1C(=O)N(c2ccc(C#N)c(C(F)(F)F)c2)C(=O)C1(CO)c1ccccc1 (stereo not shown)	41 to 50%
N#CCN1C(=O)N(c2ccc(C#N)c(C(F)(F)F)c2)C(=O)C1(CO)c1ccccc1 (stereo not shown)	6 to 20%
CN1C(=O)N(c2ccc(C#N)c(C(F)(F)F)c2)C(=O)[C@]1(CO)c1ccccc1	0 to 5%
CN1C(=O)N(c2ccc(C#N)c(C(F)(F)F)c2)C(=O)C1(COP(=O)(O)O)c1ccccc1 (stereo not shown)	21 to 40%
Cc1cccc(C2(CO)C(=O)N(c3ccc(C#N)c(C(F)(F)F)c3)C(=O)N2C)c1 (stereo not shown)	6 to 20%
CCC(O)C1(c2ccccc2)C(=O)N(c2ccc(C#N)c(C(F)(F)F)c2)C(=O)N1C (single isomer, unassigned)	0 to 5%
C#CCN1C(=O)N(c2ccc(C#N)c(C(F)(F)F)c2)C(=O)C1(CO)c1ccccc1 (stereo not shown)	6 to 20%
CN1C(=O)N(c2ccc(C#N)c(C(F)(F)F)c2)C(=O)[C@@]1(CO)c1ccccc1	21 to 40%
CCN1C(=O)N(c2ccc(C#N)c(C(F)(F)F)c2)C(=O)C1(CO)c1ccccc1 (stereo not shown)	21 to 40%
CN1C(=O)N(c2ccc(C#N)c(C(F)(F)F)c2)C(=O)C1(CO)c1ccc(F)cc1 (stereo not shown)	21 to 40%
